biological target: BTK (Homo sapiens); experiment: biochemical; conditions: read-out: BTK inhibition (%), 0.75 uM BTK, […] probe 3l, 15 min preincubation
Sequence (Q06187 402-655 limits assumed): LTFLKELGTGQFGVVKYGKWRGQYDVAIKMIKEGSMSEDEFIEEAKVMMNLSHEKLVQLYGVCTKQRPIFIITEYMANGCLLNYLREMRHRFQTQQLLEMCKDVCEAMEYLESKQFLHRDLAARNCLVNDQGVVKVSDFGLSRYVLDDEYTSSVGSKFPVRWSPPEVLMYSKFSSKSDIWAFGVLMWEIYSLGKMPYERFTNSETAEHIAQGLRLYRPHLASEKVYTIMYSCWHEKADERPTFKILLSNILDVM
Listed here are molecules together with their documented inhibition at 10 µM.
experimental_endpoint: inhibition at 10 µM (%)

{"columns": ["molecule", "tested_on", "number"],
 "data": [
  ["CC(C)=CCC[C@](C)(O[C@@H]1O[C@H](CO)[C@@H](O)[C@H](O)[C@H]1O)[C@H]1CC[C@]2(C)[C@@H]1[C@H](O)C[C@@H]1[C@@]3(C)CC[C@H](O)C(C)(C)[C@@H]3CC[C@]12C", "BTK (Homo sapiens)", 11.6],
  ["CC(=O)Oc1ccc(C(=C2CCCCC2)c2ccc(OC(C)=O)cc2)cc1", "BTK (Homo sapiens)", -3.9],
  ["CO[C@@H]1[C@@H](O[C@@H]2O[C@H](C)[C@@H](O[C@H]3C[C@@](C)(O)[C@@H](O)[C@H](C)O3)[C@H](N(C)C)[C@H]2O)[C@@H](CC=O)C[C@@H](C)[C@@H](O)/C=C/C=C/C[C@@H](C)OC(=O)C[C@H]1O", "BTK (Homo sapiens)", 6.2],
  ["C=CC(=C)C", "BTK (Homo sapiens)", 1.5],
  ["NNC(=O)c1ccncc1", "BTK (Homo sapiens)", 2.3],
  ["Cc1cc(NC(=O)c2cccc(NC(=O)/C=C/CN(C)C)c2)ccc1Nc1nccc(-c2cccnc2)n1", "BTK (Homo sapiens)", 9.7],
  ["C[C@@H](c1nc(-c2ccc(C#N)cc2)cs1)[C@](O)(Cn1cncn1)c1cc(F)ccc1F", "BTK (Homo sapiens)", -14],
  ["C=CC[N+]1([C@H]2C[C@H]3[C@@H]4CC[C@H]5C[C@H](O)[C@@H](N6CCOCC6)C[C@]5(C)[C@H]4CC[C@]3(C)[C@H]2OC(C)=O)CCCC1", "BTK (Homo sapiens)", -24.1],
  ["CCCC(CCC)C(N)=O", "BTK (Homo sapiens)", 19.3],
  ["COC(=O)C1=CO[C@@H](O[C@@H]2O[C@H](CO)[C@@H](O)[C@H](O)[C@H]2O)[C@@H]2[C@@H](C)CC(=O)[C@]12O", "BTK (Homo sapiens)", -3.1],
  ["Fc1ccc(-c2c3cccc(C(F)(F)F)c3nn2Cc2ccc(F)cc2Cl)cc1", "BTK (Homo sapiens)", 30.1],
  ["CCO[C@H]1O[C@@H]2O[C@@]3(C)CC[C@H]4[C@H](C)CC[C@@H]([C@H]1C)[C@@]24OO3", "BTK (Homo sapiens)", -16.3],
  ["CN[C@H]1CC[C@@H](c2ccc(Cl)c(Cl)c2)c2ccccc21", "BTK (Homo sapiens)", -19.5],
  ["O=C(Nc1cccc(C(F)(F)F)c1)c1cccc2cc(Oc3cc(CO)ncn3)ccc12", "BTK (Homo sapiens)", -0.7],
  ["O=C(O)CCCCC1CCSS1 (stereo not drawn)", "BTK (Homo sapiens)", -16.3],
  ["O=S1(=O)CCN(CN2CCS(=O)(=O)NC2)CN1", "BTK (Homo sapiens)", 0],
  ["CC1=CC(=O)NS(=O)(=O)O1", "BTK (Homo sapiens)", -14],
  ["O=C(O)c1ccc2c3c1cccc3c(=O)n1c3ccccc3nc21", "BTK (Homo sapiens)", 13.8],
  ["COc1ccc(S(=O)(=O)N(C(C)=O)c2ccccc2/C=C/c2cc[n+]([O-])cc2)cc1", "BTK (Homo sapiens)", -18.6],
  ["CC(=O)Nc1nc(C)c(-c2ccc(Cl)c(S(=O)(=O)NCCO)c2)s1", "BTK (Homo sapiens)", -10.3],
  ["CCOC(=O)C1=C[C@]2(CC)CCCN3CCc4c(n1c1ccccc41)[C@@H]32", "BTK (Homo sapiens)", -14.5],
  ["CN(C)c1ccc(C(=O)NCCCCCCC(=O)NO)cc1", "BTK (Homo sapiens)", 4.7],
  ["O=C(NCCO)c1cccc(-c2cc(Nc3ccc(OC(F)(F)F)cc3)ncn2)c1", "BTK (Homo sapiens)", -24.1],
  ["COc1cc2c(NC3CCN(C(C)C)CC3)nc(C3CCCCC3)nc2cc1OCCCN1CCCC1", "BTK (Homo sapiens)", -10.8],
  ["Clc1ccc2nsnc2c1NC1=NCCN1", "BTK (Homo sapiens)", 14.8],
  ["O=C(Nc1cccnc1)c1cc(-c2ccnc(F)c2)ccc1OCc1ccccc1", "BTK (Homo sapiens)", 2.1],
  ["CC(=O)OCc1ccccc1", "BTK (Homo sapiens)", 10.8],
  ["C[C@@H]1C[C@H]2[C@@H]3CCC4=CC(=O)C=C[C@]4(C)[C@@]3(Cl)[C@@H](O)C[C@]2(C)[C@@]1(OC(=O)c1ccco1)C(=O)CCl", "BTK (Homo sapiens)", 40],
  ["CNC(=O)Nc1ccc(-c2nc(N3CC4CCC(C3)O4)c3cnn(C4CCC5(CC4)OCCO5)c3n2)cc1", "BTK (Homo sapiens)", 15.9],
  ["Cc1[nH]c2ccccc2c1CCNCc1ccc(/C=C/C(=O)NO)cc1", "BTK (Homo sapiens)", 0.8],
  ["O=c1cc(-c2cccc3c2Sc2ccccc2S3)oc(N2CCOCC2)c1", "BTK (Homo sapiens)", -12.4],
  ["CCC(CC)(NC(=O)C(C)C)C(=O)N[C@@H](CCCN=C(N)N)C(=O)NC1(C(=O)NC(c2ccc(F)cc2)c2ccc(F)cc2)CCCC1", "BTK (Homo sapiens)", -14.7],
  ["COc1ccc([C@H]2CNC(=O)C2)cc1OC1CCCC1", "BTK (Homo sapiens)", 7]
]}
